Listed below: TGI values for each entry.
test system: BT-549 breast; experiment: NCI tumour cell line growth inhibition, 48 h

| COMPOUND | VALUE RELATION SIGN | TGI [µM] |
| --- | --- | --- |
| CCCCCCNC(=O)Oc1ccc(/C(=C(\C)c2ccccc2)c2ccc(OCCN(CC)CC)cc2)cc1 | = | 12.5 |
| CN(C)CCn1nc(N)c2nc3cc(C(F)(F)F)ccc3nc21 | > | 100 |
| CSC1=C(C(=O)Nc2ccccc2)C(N)=NC1=O | > | 100 |
| CCN(CC)CCC(=O)c1ccc(Oc2ccc(F)cc2)cc1 | = | 32.8 |
| CCCCCCCCCCCCCCCCP(=O)([O-])OCC[N+](C)(C)C | = | 22.6 |
| C#CCCCC(=O)N(C(=O)CS(=O)CC)c1ccccc1 (stereo unspecified) | > | 100 |
| Cc1cc(S(=O)(=O)Nc2nc3cc(Cl)ccc3o2)c(SCc2ccccc2)cc1Cl | = | 38.7 |
| Cc1nc2c(=O)[nH]c3ccc(Cl)cc3c2o1 | > | 100 |
| O=[As]c1ccc(C(=O)c2ccc(Oc3ccccc3)cc2)cc1 (stereo unspecified) | = | 0.278 |
| N=C(c1cccs1)C1(N2CCCCC2)CCCCC1 | = | 41.9 |
| C=CCC(SC)C1=C(C)C(=O)c2ccccc21 (stereo unspecified) | > | 10 |
